Tested on: JAK2_INA61 (cancer cell line dependent on cytokines and JAK/STAT signal transduction)
Assay: Cellular assay: viability of cytokine-dependent cancer cell line (CellTiter-Glo)
Format: cell-based
Conditions: 72 hours, read-out: EXAMPLE B JAK2_INA61 IC50
experimental_readout: IC50

Study these solved cases before continuing.
compound	IC50
Cc1ccc(NC(=O)c2cc(C(F)(F)F)ccc2C(F)(F)F)cc1-c1ccc2[nH]c3ncncc3c2c1	> 1000 nM
COc1cccc(C(=O)Nc2ccc(C)c(-c3ccc4c(c3)[nH]c3ncncc34)c2)c1	> 1000 nM
Cc1ccc(NC(=O)c2cccc(C(F)(F)F)c2)cc1-c1ccc2[nH]c3ncncc3c2c1	≤ 500 nM
Cc1ccc(C(=O)Nc2cncc(C(F)(F)F)c2)cc1-c1ccc2c(c1)[nH]c1ncncc12	500 to 1000 nM

Next item in the queue.
Identify IC50 associated with the compound `Cc1ccc(NC(=O)c2cc(F)cc(C(F)(F)F)c2)cc1-c1ccc2c(c1)[nH]c1ncncc12`
≤ 500 nM
